molecular target: UniProtKB P41743
Sequence (P41743 2-596): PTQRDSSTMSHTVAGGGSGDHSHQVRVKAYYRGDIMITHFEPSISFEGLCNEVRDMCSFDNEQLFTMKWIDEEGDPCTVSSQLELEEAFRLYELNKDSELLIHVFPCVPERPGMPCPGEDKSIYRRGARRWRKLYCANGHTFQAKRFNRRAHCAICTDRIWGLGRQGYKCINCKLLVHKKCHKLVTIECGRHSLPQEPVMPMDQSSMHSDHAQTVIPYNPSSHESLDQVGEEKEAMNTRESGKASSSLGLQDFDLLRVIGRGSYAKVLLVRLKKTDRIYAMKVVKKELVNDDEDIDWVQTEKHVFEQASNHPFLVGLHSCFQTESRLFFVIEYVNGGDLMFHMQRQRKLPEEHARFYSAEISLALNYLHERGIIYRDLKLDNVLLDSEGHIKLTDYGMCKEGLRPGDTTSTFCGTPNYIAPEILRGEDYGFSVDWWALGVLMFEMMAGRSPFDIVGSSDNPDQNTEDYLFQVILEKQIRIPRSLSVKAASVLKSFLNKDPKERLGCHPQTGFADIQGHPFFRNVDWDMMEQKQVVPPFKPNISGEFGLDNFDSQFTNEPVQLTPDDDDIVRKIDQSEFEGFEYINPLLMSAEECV
measurement_name: Kd (nM)

* CCc1c(O)c(O)c2c(c1O)C(=O)C(O)=C(O)C2=O | 6.3
